B1: tRNA (parent)
chain: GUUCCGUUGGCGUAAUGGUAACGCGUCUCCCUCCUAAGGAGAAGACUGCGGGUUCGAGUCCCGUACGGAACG

# Variants of: B1
# METHOD: yeast fitness relative to wild type (ratio to wild type); higher = fitter; tRNA-Arg(CCU), competitive growth, 37 C, YPD
Variants at the floor of the assay were thinned out.
PROPERTY: yeast fitness

U19C C30U G51C: 0.693

Asked: So what's the measured yeast fitness for this one? A14G A15U G25C C49U
Given back: 0.619

Asked: So what's the measured yeast fitness for this one? C4A G17C G23C
Given back: ≤ 0.5

Asked: So what's the measured yeast fitness for this one? C4A G6A U16C G38A G58C C66U
Given back: ≤ 0.5
